tested on: RAW264.7; experiment: Antiinflammatory activity against LPS-stimulated mouse RAW264.7 cells assessed as inhibition of NO production at 3.125 to 25 uM after 24 hrs by Griess method; type: functional, cell-based
observation-type: Activity

>  <compound>
CCCCCCCC/C=C\CCCCCCCCCCCC(=O)NCCc1ccc(O)c(O)c1

>  <observed-value>
Dose-dependent effect

$$$$
>  <compound>
CCCCC/C=C\C/C=C\CCCCCCCC(=O)NCCc1ccc(O)c(O)c1

>  <observed-value>
Dose-dependent effect

$$$$
>  <compound>
CCCCCCCCC(=O)/C=C/CCCCCCC(=O)NCCCl

>  <observed-value>
Dose-dependent effect

$$$$
>  <compound>
CCCCCCCC/C=C\CCCCCCCC(=O)NCCc1ccc(O)c(O)c1 [OLEOYL DOPAMINE]

>  <observed-value>
Dose-dependent effect

$$$$
>  <compound>
CCCCCCCCCCCCCCCC(=O)NCCc1ccc(O)c(O)c1 [PALMITOYL DOPAMINE]

>  <observed-value>
Dose-dependent effect

$$$$
>  <compound>
CCCCCCCCC(=O)/C=C/CCCCCCC(=O)N[C@H](C)CO

>  <observed-value>
Dose-dependent effect

$$$$
>  <compound>
CCCCCCCCC(=O)/C=C/CCCCCCC(=O)NCC(O)CO (racemic)

>  <observed-value>
Dose-dependent effect

$$$$
>  <compound>
CCCCCCCCC(=O)/C=C/CCCCCCC(=O)NC(C)C

>  <observed-value>
Dose-dependent effect

$$$$
>  <compound>
CCCCCCCCC(=O)/C=C/CCCCCCC(=O)NCCO

>  <observed-value>
Dose-dependent effect

$$$$
>  <compound>
CCCCCCCCC(=O)/C=C/CCCCCCC(=O)NCCc1ccc(O)c(O)c1

>  <observed-value>
Dose-dependent effect

$$$$

Request: Would you mind telling me what Activity value was observed for CCCCCCC/C=C/C(=O)CCCCCCCC(=O)NCC(=O)O ?
Result: Dose-dependent effect

Request: Would you mind telling me what Activity value was observed for CCCCCCCCC(=O)/C=C/CCCCCCC(=O)NCCc1c[nH]c2ccc(O)cc12 ?
Result: Dose-dependent effect

Request: Would you mind telling me what Activity value was observed for CCCCCCCC/C=C/C(=O)CCCCCCC(=O)NCC(=O)O ?
Result: Dose-dependent effect

Request: Would you mind telling me what Activity value was observed for CC/C=C\C/C=C\C/C=C\CCCCCCCC(=O)NCCc1ccc(O)c(O)c1 [LINOLEOYL DOPAMINE] ?
Result: Dose-dependent effect
